Entries and their Population Healthy Nuclei (%)
test system: U2OS; assay: Multiplex assay against U2OS; format: toxicity, cell-based; conditions: human, 12 h, 1 µM, compound concentration 1 uM, replicate 1
measured.property: Population Healthy Nuclei (%)

{"columns": ["compound", "measured"],
 "data": [
  ["CC(=O)NCCc1c(Cc2ccccc2)[nH]c2ccccc12 [LUZINDOLE]", 65],
  ["COc1c(C)cc(NC(=O)c2nn(Cc3ccc(F)cc3)c3c2CN(C(=O)c2ccc[nH]2)C[C@]3(C)C(N)=O)cc1C", 65],
  ["CC1(COc2ccc3c(c2)ncn3-c2ccc3cccc(N4CCC(N)CC4)c3n2)COC1 [CRENOLANIB]", 50],
  ["CCCN1CCC[C@@H]2Cc3n[nH]cc3C[C@H]21.Cl [QUINPIROLE HYDROCHLORIDE]", 60]
]}

---

Here, each record is paired with measured Population Apoptotic (%) data.
tested on: U2OS; test: Multiplex assay against U2OS; type: toxicity, cell-based; conditions: human, 12 h, 10 µM, compound concentration 10 uM, replicate 1

{"columns": ["molecule", "measured.on", "value.unit", "Population Apoptotic (%)"],
 "data": [
  ["COc1cc(C(=O)N(CCCc2ccccc2)Cc2ccc(CC(=O)O)cc2)cc(OC)c1C", "U2OS", "%", 82],
  ["CC(C)(C)c1ccc(S(=O)(=O)Nc2ccc(Cl)cc2C(=O)c2cc[n+]([O-])cc2)cc1", "U2OS", "%", 77],
  ["Cc1ccc(-c2ccc(F)cc2COc2ccc(CCC(=O)O)cc2)cc1", "U2OS", "%", 75],
  ["Cc1nc2ccc(Oc3ccc(F)cc3)cc2c(=O)n1C[C@H]1CCCN(C(C)C)C1.Cl", "U2OS", "%", 65],
  ["CN(C)c1ccnc2sc3c(=O)n(N4CCCCCC4)cnc3c12", "U2OS", "%", 41],
  ["C[C@H](NC(=O)c1c(C(F)F)nn(C)c1Oc1cccc(C(F)(F)F)c1)c1ccc(C(=O)O)cc1", "U2OS", "%", 83],
  ["O=C(O)c1cc2ccccc2c(Cc2c(O)c(C(=O)O)cc3ccccc23)c1O", "U2OS", "%", 75],
  ["CCCN1CCC[C@@H]2Cc3n[nH]cc3C[C@H]21.Cl [QUINPIROLE HYDROCHLORIDE]", "U2OS", "%", 58],
  ["Oc1c(CN2CCN(c3ccccn3)CC2)cc(Cl)c2cccnc12", "U2OS", "%", 84],
  ["Cc1ccc(C(C)(O)c2nc3ccccc3s2)c(C)c1 (stereo not given)", "U2OS", "%", 100]
]}

---

Population Membrane Permeable-Phenotype (%) reference
tested on: HEK-293T; assay: Multiplex assay against HEK293T; type: toxicity, cell-based; details: human, 48 h, 10 µM, compound concentration 10 uM, replicate 1
measured.property: Population Membrane Permeable-Phenotype (%)

{"columns": ["compound", "measured"],
 "data": [
  ["O=C1COc2nccc(-c3ccccc3F)c2CN1Cc1cc(C(F)(F)F)cc(C(F)(F)F)c1", "0%"],
  ["COc1ccc2c(c1)C(C(=O)N(Cc1ccc(N(C)C)cc1)c1ccc(C(C)C)cc1)CCC2.Cl (configuration not stated)", "6%"],
  ["CC(=O)NCCc1c(Cc2ccccc2)[nH]c2ccccc12", "0%"],
  ["O=C(O)c1cc2ccccc2c(Cc2c(O)c(C(=O)O)cc3ccccc23)c1O", "0%"],
  ["CCNC1(C(N)=O)CCN(c2ncnc3c2nc(-c2ccccc2Cl)n3-c2ccc(Cl)cc2)CC1", "2%"],
  ["O=C(NCC(=O)N1CC[C@H](N[C@H]2CC[C@@](O)(c3ccc(-c4ncccn4)cn3)CC2)C1)c1cccc(C(F)(F)F)c1", "0%"],
  ["Cc1ccccc1C(=O)Nc1ccc(C(=O)N2CCCC(N(C)C)c3ccccc32)cc1.Cl (configuration not stated)", "0%"],
  ["CN1CCN2c3ncccc3Cc3ccccc3C2C1 (configuration not stated)", "0%"],
  ["Oc1c(CN2CCN(c3ccccn3)CC2)cc(Cl)c2cccnc12", "0%"],
  ["C[C@@H]1C[C@H]2[C@@H]3CCC4=CC(=O)C=C[C@]4(C)[C@@]3(F)[C@@H](O)C[C@]2(C)[C@@]1(O)C(=O)CO", "0%"],
  ["CCOc1c2c(c(OCC)c3ncccc13)CN(c1ccc(CS(=O)(=O)NC(=O)Cc3ccccc3OC)cc1C)C2=O", "1%"],
  ["C[C@H](NC(=O)c1c(C(F)F)nn(C)c1Oc1cccc(C(F)(F)F)c1)c1ccc(C(=O)O)cc1", "1%"],
  ["N[C@@]1(C(=O)O)CO[C@H]2[C@H](C(=O)O)[C@H]21", "1%"],
  ["C[C@H]1[C@H]2CC[C@H]3[C@@H]4CC=C5C[C@@H](N(C)C)CC[C@]5(C)[C@H]4CC[C@]23CN1C", "1%"],
  ["COc1cc(NC(=O)CCN2CCC(OC(=O)Nc3ccccc3-c3ccccc3)CC2)c(Cl)cc1CNC[C@H](O)c1ccc(O)c2[nH]c(=O)ccc12", "0%"],
  ["CCCN1CCC[C@@H]2Cc3n[nH]cc3C[C@H]21.Cl [QUINPIROLE HYDROCHLORIDE]", "1%"],
  ["CCCC(CCC)C(=O)O", "1%"]
]}
